Origin of values: paper PMC7588595

Molecular target: human AspH (His6-AspH315–758) (Homo sapiens, UniProt Q12797)
Construct: N-Terminally His6-tagged human AspH315–758 (His6-AspH315–758) was produced in Escherichia coli BL21 (DE3) cells; made in house; host or cells: Escherichia coli BL21 (DE3), pET-28a(+) vector
Sequence (Q12797 315-758): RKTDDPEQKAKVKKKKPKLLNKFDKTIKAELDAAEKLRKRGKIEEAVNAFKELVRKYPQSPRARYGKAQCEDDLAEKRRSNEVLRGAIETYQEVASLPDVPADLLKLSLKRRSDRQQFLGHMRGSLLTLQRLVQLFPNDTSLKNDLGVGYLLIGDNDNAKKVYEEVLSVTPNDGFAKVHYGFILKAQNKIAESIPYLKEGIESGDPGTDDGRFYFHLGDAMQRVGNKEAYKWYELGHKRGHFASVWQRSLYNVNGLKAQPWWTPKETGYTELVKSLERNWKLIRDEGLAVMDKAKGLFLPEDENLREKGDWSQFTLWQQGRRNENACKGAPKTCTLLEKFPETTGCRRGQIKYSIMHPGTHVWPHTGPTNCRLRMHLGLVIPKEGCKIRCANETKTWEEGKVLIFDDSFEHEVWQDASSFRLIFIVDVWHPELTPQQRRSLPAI
Assay: SPE-MS AspH inhibition assay (hFX-CP101-119 substrate hydroxylation)
Type: biochemical
Settings: AspH-inhibitor screening, Plate 1-duplicate
VALUE TYPE: Plate 1-duplicate (% inhibition) (%)

COMPOUND: CC(O)(CS(=O)(=O)c1ccc(F)cc1)C(=O)Nc1ccc(C#N)c(C(F)(F)F)c1 (stereo not shown) [Bicalutamide]
NUMERIC RESULT: 0.00746
--
COMPOUND: CCC(C)(C)C(=O)O[C@H]1C[C@@H](C)C=C2C=C[C@H](C)[C@H](CC[C@@H]3C[C@@H](O)CC(=O)O3)[C@H]21
NUMERIC RESULT: -16.09

(a) NC(=O)c1ccc(I)c([N+](=O)[O-])c1
(b) Cn1cc(C2=C(c3cn(C4CCN(Cc5ccccn5)CC4)c4ccccc34)C(=O)NC2=O)c2ccccc21
q: Which record would sort first by descending Plate 1-duplicate (% inhibition), a or b ? Reply briefly: the label of your chosen item.
a: a
(a: 5.00%, b: -0.48%)
